The reported measurements were obtained from the supplement of paper PMC10065799.

- measurement.target: FGFR1 (UniProt P11362)
- Sequence (P11362 whole entry, looked up): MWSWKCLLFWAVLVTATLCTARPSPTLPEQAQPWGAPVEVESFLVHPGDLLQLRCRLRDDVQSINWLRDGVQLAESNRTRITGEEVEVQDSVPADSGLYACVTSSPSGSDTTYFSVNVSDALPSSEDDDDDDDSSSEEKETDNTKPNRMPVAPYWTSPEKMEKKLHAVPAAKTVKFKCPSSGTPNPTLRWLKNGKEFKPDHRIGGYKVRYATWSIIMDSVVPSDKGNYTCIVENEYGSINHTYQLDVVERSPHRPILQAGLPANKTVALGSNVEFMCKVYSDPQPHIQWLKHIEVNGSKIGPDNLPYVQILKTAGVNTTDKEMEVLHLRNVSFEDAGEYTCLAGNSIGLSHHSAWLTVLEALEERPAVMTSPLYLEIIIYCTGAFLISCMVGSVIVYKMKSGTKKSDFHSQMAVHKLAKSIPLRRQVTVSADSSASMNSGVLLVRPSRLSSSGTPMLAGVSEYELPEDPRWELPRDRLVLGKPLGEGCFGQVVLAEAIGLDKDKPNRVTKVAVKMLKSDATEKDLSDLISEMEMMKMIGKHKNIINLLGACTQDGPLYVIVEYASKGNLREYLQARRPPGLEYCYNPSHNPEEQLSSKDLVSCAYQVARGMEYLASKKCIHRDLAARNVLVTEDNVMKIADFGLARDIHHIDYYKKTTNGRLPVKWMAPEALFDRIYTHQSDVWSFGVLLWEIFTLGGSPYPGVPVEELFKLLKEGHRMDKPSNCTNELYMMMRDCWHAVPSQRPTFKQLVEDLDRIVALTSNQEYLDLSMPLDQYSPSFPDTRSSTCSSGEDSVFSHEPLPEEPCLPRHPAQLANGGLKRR
- assay.name: phosphorylation enrichment, bacterial display (enrichment ratio); higher = better substrate or ligand; peptides without Tyr show the background;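 further: 11-residue human phosphosite peptides and single-mutation variants displayed on the E. coli surface, counted by deep sequencing, each peptide's frequency after selection divided by its frequency in the unselected input library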;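 further: frequency after pTyr selection over input frequency; kinase dosed for 20-30% of maximal phosphorylation in three min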
value.type: phosphorylation enrichment

> print(dat)
                    construct.sequence                  value.type  reported.result
 1      QMWLKYSQSDL [SMC1A_Y714_R711W]  phosphorylation enrichment            0.701
 2          LYSNAYLNDLA [ALDH1A1_Y119]  phosphorylation enrichment            0.484
 3      DLVHPYVHKIL [SF3B1_Y570_R568H]  phosphorylation enrichment            0.457
 4             IRGNMYYENSY [EGFR_Y112]  phosphorylation enrichment             0.58
 5              SHLSAYPALEG [CD5_Y465]  phosphorylation enrichment            0.404
 6      AVPSLYASGRT [ACTA1_Y145_L142P]  phosphorylation enrichment            0.405
 7       CTLLPYYSAPV [DGKE_Y269_R273P]  phosphorylation enrichment             1.43
 8         VTSLKYSTSPF [BRIP1_Y916_YF]  phosphorylation enrichment            0.435
 9   HNVAIYEGFAL [ACTC1_Y168_P166A_YF]  phosphorylation enrichment             0.56
10  SNNFIYTTLGV [FAM83B_Y639_K640T_YF]  phosphorylation enrichment             1.22
11           TEDPEYDVQSK [PTCHD3_Y335]  phosphorylation enrichment            0.689
12      LVVFEYMRHGD [NTRK1_Y591_M587V]  phosphorylation enrichment            0.486
13      LEIETDRRLLD [KRT12_Y429_Y429D]  phosphorylation enrichment             1.35
14    AELVRYFMEHH [PTPN11_Y80_Q79R_YF]  phosphorylation enrichment            0.454
15             RALRHYYKLNI [ETV6_Y401]  phosphorylation enrichment             1.46
16        QGLRLYRPHLP [BTK_Y617_A622P]  phosphorylation enrichment             0.48
17            SDVWSYGVTMW [ZAP70_Y525]  phosphorylation enrichment            0.557
18       IFRAAYFGVFD [SLC25A4_Y191_YF]  phosphorylation enrichment            0.499
19      LYSINYLHFGD [KDM4C_Y201_E206D]  phosphorylation enrichment             5.82
20            PFRSIYFSSPK [MPG_Y75_YF]  phosphorylation enrichment            0.599
21       ADRLEYSRTGL [MMUT_Y287_G284R]  phosphorylation enrichment            0.764
22           LPKEQYLYTKE [AFG3L2_Y614]  phosphorylation enrichment            0.789

====

- Test system: c-Abl (mouse)
- assay.name: phosphorylation enrichment, bacterial display (enrichment ratio); higher = better substrate or ligand; peptides without Tyr show the background
value.type: phosphorylation enrichment

> print(dat)
                    construct.sequence  reported.result
 1       AFEQQYSPIPK [NOX1_Y373_R378K]            0.612
 2      SLEKSYKLPDG [ACTA1_Y242_E243K]            0.574
 3           TRSFKYLLLSM [NF1_Y491_YF]            0.706
 4       FEGHSYSACTT [MMP9_Y241_R239H]             1.34
 5           YAKSVYWENTL [NUP107_Y296]            0.728
 6       AVSHRYDLGGL [QPRT_Y162_A158V]            0.379
 7      CQASLYPSNHD [LRIG1_Y996_G993A]            0.798
 8           KGPNVYKKTVN [REV3L_Y1156]            0.492
 9       MEIHAYLKLLE [LMNA_Y376_R377L]             1.24
10   RSAGKDDVFLI [MECP2_Y120_Y120D_YF]            0.872
11            FESPRYLQVHI [FANCA_Y488]            0.949
12      TIMTNYNPNYC [ALK_Y1092_D1091N]            0.558
13    KGPNVCKKTVN [REV3L_Y1156_Y1156C]             1.13
14        QGLRLYRTHLA [BTK_Y617_P619T]            0.448
15  PRARTYCFKQE [KLHDC9_Y175_S171R_YF]            0.591
16          LYSNAYLNDLA [ALDH1A1_Y119]            0.396
17    CTTIHYHFMCN [TP53_Y234_N235H_YF]            0.785
18     LDAFIYNAAVL [GRIN2A_Y730_D731N]            0.972
19            TLQSMYGCDVG [HLA-B_Y123]            0.639
20   MCDKEYFSVHN [MET_Y1234_Y1230C_YF]            0.586
21      VRQQDYKKVEE [HADHA_Y283_V282D]            0.423
22            REESTYLPLTS [ICAM3_Y527]            0.674
23     SVFNNYIQTLG [CTNND1_Y174_S171F]            0.557
24        GLRSFYETSKM [MAGED2_Y449_YF]            0.806
25  FPSLPYSPVSS [CAMKK2_Y128_C123Y_YF]            0.507
26       HFPFQCHRQLF [F12_Y53_Y53C_YF]             1.09

====

- measurement.target: EPHB2 (UniProt P29323)
- Sequence (P29323 whole entry, looked up): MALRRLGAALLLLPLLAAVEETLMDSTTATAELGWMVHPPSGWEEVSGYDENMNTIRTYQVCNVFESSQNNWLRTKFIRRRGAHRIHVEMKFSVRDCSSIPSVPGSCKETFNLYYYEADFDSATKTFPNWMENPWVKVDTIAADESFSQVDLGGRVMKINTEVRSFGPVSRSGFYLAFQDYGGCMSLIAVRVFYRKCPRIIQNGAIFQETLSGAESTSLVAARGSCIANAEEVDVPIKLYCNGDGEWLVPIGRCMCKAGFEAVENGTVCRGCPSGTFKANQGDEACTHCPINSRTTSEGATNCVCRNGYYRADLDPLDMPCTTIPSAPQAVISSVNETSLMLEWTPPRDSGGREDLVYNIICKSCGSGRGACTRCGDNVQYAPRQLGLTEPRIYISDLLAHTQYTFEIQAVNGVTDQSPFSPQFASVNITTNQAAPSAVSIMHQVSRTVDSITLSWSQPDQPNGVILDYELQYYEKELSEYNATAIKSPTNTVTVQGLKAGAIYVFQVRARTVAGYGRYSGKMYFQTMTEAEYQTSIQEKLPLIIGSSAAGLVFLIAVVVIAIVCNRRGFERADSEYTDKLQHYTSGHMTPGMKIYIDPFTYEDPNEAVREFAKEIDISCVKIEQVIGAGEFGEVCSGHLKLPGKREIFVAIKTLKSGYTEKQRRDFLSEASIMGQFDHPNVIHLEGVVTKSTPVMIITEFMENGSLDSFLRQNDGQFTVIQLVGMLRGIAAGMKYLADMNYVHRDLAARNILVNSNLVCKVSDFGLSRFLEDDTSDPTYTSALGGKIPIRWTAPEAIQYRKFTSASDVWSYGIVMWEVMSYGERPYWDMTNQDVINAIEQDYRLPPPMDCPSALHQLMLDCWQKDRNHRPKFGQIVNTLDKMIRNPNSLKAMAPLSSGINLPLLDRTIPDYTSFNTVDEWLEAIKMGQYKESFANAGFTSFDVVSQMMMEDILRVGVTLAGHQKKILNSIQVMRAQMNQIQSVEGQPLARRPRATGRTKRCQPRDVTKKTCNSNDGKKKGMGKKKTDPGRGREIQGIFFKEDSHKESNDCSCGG
- assay.name: phosphorylation enrichment, bacterial display (enrichment ratio); higher = better substrate or ligand; peptides without Tyr show the background
value.type: phosphorylation enrichment

> print(dat)
                   construct.sequence  reported.result
 1        GAPATYEGDAR [CACNA1A_Y1013]            0.499
 2        GGPTFYIDTNA [ACTL6A_Y69_YF]            0.626
 3     PLDNLYAEPAV [PRPS1_Y146_V142L]             12.9
 4        VFPIDYYFPPQ [AR_Y552_L548F]             3.65
 5          LKYAIYFEARE [LAMA2_Y1258]              1.4
 6   GHEEFYSTHPH [LRRK2_Y1402_R1398H]              0.7
 7     QMWLKYSQSDL [SMC1A_Y714_R711W]            0.562
 8    YPPDGYSRHCE [CTNND1_Y213_Y217C]            0.487
 9        RRAKGYPIDLF [ITGB2_Y125_YF]            0.605
10     IGERTYGQVYK [CDK13_Y716_G714R]            0.416
11    SVFNNYIQTLG [CTNND1_Y174_S171F]            0.418
12  ESDFPYSSSFE [SRPK2_Y427_T426P_YF]            0.502
13   CTNIHYNFMCN [TP53_Y234_T231N_YF]            0.597
14            CPEARYNRSPI [PTAR1_Y42]            0.458
15      IFRAAYFGVFD [SLC25A4_Y191_YF]            0.594
16     YQCKHYACIRQ [TIMP3_Y182_S179C]            0.363
17  FQKDVYNIPPS [NEDD9_Y177_D178N_YF]            0.411
18     THQKSYQPGRK [CEFIP_Y210_N208K]            0.432
19           HLWRIYYDITD [MMP27_Y307]             4.96
20           TTANRYLKVSD [MYOM2_Y871]            0.432
